assay.system: Human autotaxin enzyme (Homo sapiens)
Construct: purchased R&D System
experiment: Evaluation of autotaxin inhibitor, Method C (Test Example 3): 18:0 Lyso PC, choline assay, Resorufin fluorescence
Type: biochemical
study.conditions: Assay Method C, human autotaxin, 18:0 Lyso PC substrate; read-out: Inhibitory Activity
experimental.endpoint: IC50

Example compounds with recorded IC50:
| compound | assay.system | IC50 |
| --- | --- | --- |
| CN(CC(O)CO)C(=O)Cc1cn(CCCC(F)(F)F)c2nc(-c3ccc(Cl)cc3)cn2c1=O (stereo not shown) | Human autotaxin enzyme (Homo sapiens) | > 1000 nM |
| CCCCCn1c(N2CCC[C@H]2C(=O)NCC(=O)OC)cc(=O)n2cc(-c3ccc(Cl)cc3)nc12 | Human autotaxin enzyme (Homo sapiens) | 10 to 100 nM |
| CCCCCn1c(N2CCCC(C(=O)O)C2C)cc(=O)n2cc(-c3ccc(Cl)cc3)nc12 (stereo not shown) | Human autotaxin enzyme (Homo sapiens) | 100 to 1000 nM |
| CC(C)(C)OC(=O)NCCNC(=O)Cc1cn(CCCC(F)(F)F)c2nc(-c3ccc(Cl)cc3)cn2c1=O | Human autotaxin enzyme (Homo sapiens) | 100 to 1000 nM |
| Cn1c(N2C[C@H](O)C[C@H]2C(=O)NC(C)(C)C(=O)O)cc(=O)n2cc(-c3ccc(Cl)cc3)nc12 | Human autotaxin enzyme (Homo sapiens) | > 1000 nM |

Query block: Look up and report IC50, with Human autotaxin enzyme (Homo sapiens) as system, for O=C(Cc1cn(CCCC(F)(F)F)c2nc(-c3ccc(Cl)cc3)cn2c1=O)NCC(O)CO (stereo not shown)
Result block: > 1000 nM

Query block: Look up and report IC50, with Human autotaxin enzyme (Homo sapiens) as system, for Cc1noc(CNC(=O)Cc2cn(CCCC(F)(F)F)c3nc(-c4ccc(Cl)cc4)cn3c2=O)n1
Result block: 100 to 1000 nM
